- test-details: Toxicity liver stage against HepG2, at 10uM
- Format: cell-based
- Set-up: test concentration 10 uM, cell line HepG2-A16-CD81EGFP
- experimental-parameters: human, HepG2-A16-CD81EGFP cells; read-out: INHIBITION

{"columns": ["compound", "measurement-units", "cytotoxicity at 10 µM"],
 "data": [
  ["CC(C)NC(=O)C(NC(=O)N1CCN(c2ccc(Cl)cc2)CC1)C(C)C (centres undefined)", "%", 5.69],
  ["Cc1nc2n(n1)CC(Nc1nc(-c3ccccc3)no1)CC2 (centres undefined)", "%", 0.658],
  ["CSc1cc2c(cc1NC(=O)NCC1CCOC1)OCCO2 (centres undefined)", "%", -4.54],
  ["Cc1nc(CN)cc(NCc2ccccc2-n2cncn2)n1", "%", 1.88],
  ["CC(SCc1cc(Br)cc2cccnc12)C(N)=O (centres undefined)", "%", 11.7],
  ["COCCN(Cc1ccc(F)cc1C#N)CC(F)(F)F", "%", -3.02],
  ["Cc1cccc(C(C(=O)NCC2(Cn3nc(C)cc3C)CC2)N(C)C)c1 (centres undefined)", "%", 2.18],
  ["Cc1ccsc1CN1C[C@@H]2CN(Cc3cccnc3)CCO[C@@H]2C1", "%", 8],
  ["CC(=O)NCCNc1nccc(CCC(F)(F)F)n1", "%", -146],
  ["Cc1ccc(S(=O)(=O)N2CCc3ccc(F)cc32)cc1C(=O)O", "%", -19.4],
  ["COc1cc(OC)c2nc(NCCN3CCNC3=O)cc(C)c2c1", "%", -3.4],
  ["CC(=O)NCC(=O)N1CC[C@H](OCC2CC2)[C@@H]1Cc1cccnc1", "%", -1.99],
  ["CC1CCN(S(=O)(=O)NCCCn2cncn2)CC1", "%", -4.91],
  ["CCc1ccccc1CN1CC[C@@H](NC(=O)c2cccnc2)[C@H](O)C1", "%", -9.67],
  ["CCS(=O)(=O)N1CCc2c(cnc(-c3cccnc3)c2C(=O)O)C1", "%", 2.66],
  ["CCS(=O)(=O)CCNC(=O)c1ccc(-c2ccc(C)cc2)cc1F", "%", -14.2],
  ["Cc1nc(C)n(CC2CCCN2Cc2cn3ccsc3n2)n1 (centres undefined)", "%", -10.7],
  ["Cc1cc(Br)ccc1C(=O)NCCN1CCCCCC1", "%", -11.6],
  ["O=c1[nH]c2cn(-c3cccc(F)c3)c(=O)n2n1Cc1ccc(Cl)cc1", "%", 8.53],
  ["CCCS(=O)(=O)N1CCC(Nc2c(F)cc(C#N)cc2F)CC1", "%", 1.34],
  ["Cc1ccc2nc(C)cc(C(=O)N[C@H]3COC[C@@H]3N3CCOCC3)c2c1", "%", -42.2],
  ["CC1(C)CN(S(=O)(=O)N2CCCC2)CC1c1ccccc1 (centres undefined)", "%", -0.71],
  ["Cc1nc(NC(=O)NCCCN2CCC(C(N)=O)CC2)sc1C", "%", 0.902],
  ["CCN(c1ccc(C(=O)N2CCCCCC2)cc1)S(=O)(=O)CC", "%", -2.25]
]}

The reported measurements were obtained from ChEMBL document CHEMBL4513216.
